pIC50 reference
- Measurement target: pY705-STAT3 in PBMC (Homo sapiens)
- Construct: Cryopreserved Peripheral Blood Mononuclear Cells (PBMC) are from AllCells; host or cells: cryopreserved PBMC
- Sequence (P40763 whole entry): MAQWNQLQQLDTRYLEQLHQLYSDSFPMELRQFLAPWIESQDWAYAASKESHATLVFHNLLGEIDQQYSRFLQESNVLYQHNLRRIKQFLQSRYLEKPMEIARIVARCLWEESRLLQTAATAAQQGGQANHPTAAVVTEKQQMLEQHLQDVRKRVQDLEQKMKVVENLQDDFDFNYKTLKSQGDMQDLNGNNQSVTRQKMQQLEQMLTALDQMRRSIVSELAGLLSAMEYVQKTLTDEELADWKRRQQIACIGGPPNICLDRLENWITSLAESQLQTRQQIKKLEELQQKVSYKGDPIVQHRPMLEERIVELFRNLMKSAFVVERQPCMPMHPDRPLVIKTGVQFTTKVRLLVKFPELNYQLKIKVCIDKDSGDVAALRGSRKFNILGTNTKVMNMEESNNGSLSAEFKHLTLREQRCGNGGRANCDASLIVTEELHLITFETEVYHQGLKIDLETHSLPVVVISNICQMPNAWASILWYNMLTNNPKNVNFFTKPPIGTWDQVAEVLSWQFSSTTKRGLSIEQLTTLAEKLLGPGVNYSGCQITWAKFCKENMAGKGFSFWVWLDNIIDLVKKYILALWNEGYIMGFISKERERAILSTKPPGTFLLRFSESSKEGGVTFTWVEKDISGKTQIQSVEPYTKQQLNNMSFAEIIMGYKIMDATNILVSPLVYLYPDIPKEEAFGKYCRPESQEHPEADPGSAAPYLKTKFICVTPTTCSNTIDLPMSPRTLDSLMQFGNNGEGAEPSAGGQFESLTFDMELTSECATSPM
- Test name: MSD-pSTAT-PBMC Assay (pSTAT3, IL-6 stimulated)
- Assay type: cell-based
- Run conditions: PBMC, compound 3 hrs, then 10 ng/mL IL-6 for 10 min; Table 115; read-out: STAT3
pIC50: −log10 of the molar value.

1. COCC(=O)SCCOP(=O)(OCCSC(=O)COC)C(F)(F)c1ccc2sc(C(=O)N[C@H]3CCCC[C@H]4CC[C@@H](C(=O)N5C[C@@H](C#N)[C@H](c6cc[nH]c(=O)c6)C5)N4C3=O)cc2c1 (single isomer, unassigned) [Compound 1010] :: 5.52 to 6.00

Now, please, on to the next compound.
-- ask State the recorded pIC50 for this entry: CC(C)(C)C(=O)OCOP(=O)(OCOC(=O)C(C)(C)C)C(F)(F)c1ccc2sc(C(=O)N[C@H]3CCCC4CC[C@@H](C(=O)N5CC(N6CCOCC6)C5)N4C3=O)cc2c1 (some centres unmarked) [Compound 249]
-- reply > 7.00

----------
- Measurement target: Recombinant STAT6 protein (STAT6 (W123-T658)) (Homo sapiens, UniProt P42226)
- Construct: Recombinant STAT6 protein (STAT6 (W123-T658))
- Sequence (P42226 123-658): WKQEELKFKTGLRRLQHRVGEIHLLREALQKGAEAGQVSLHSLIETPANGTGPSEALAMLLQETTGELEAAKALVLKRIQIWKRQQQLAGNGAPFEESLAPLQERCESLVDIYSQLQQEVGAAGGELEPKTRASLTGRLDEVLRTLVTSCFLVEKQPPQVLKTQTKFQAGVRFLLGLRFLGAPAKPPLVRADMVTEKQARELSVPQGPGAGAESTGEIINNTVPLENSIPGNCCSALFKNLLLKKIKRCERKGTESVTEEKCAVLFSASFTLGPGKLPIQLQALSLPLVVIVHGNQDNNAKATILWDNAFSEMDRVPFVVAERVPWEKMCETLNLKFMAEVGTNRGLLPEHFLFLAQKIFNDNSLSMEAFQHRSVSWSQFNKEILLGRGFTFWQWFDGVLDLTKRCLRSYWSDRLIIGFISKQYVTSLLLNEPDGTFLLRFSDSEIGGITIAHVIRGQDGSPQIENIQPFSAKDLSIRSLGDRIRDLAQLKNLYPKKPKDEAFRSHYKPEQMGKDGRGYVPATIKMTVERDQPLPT
- Test name: STAT6 Fluorescence Polarization (FP) Assay
- Type: binding
- Run conditions: STAT6 (W123-T658) 250 nM, probe 5-FAM-Ap[…]-NH2 2 nM, 45-minute incubation; read-out: STAT6 (FP assay IC50 class)
pIC50: −log10 of the molar value.
Reported endpoint: pIC50

Solved entries:
1) Cc1ccccc1C1CN(C(=O)[C@@H]2CC[C@@H]3CCC[C@H](NC(=O)c4cc5cc(C(F)(F)P(=O)(O)O)ccc5s4)C(=O)N32)C1 :: 5.52 to 6.52
2) O=C(N[C@H]1CCC[C@H]2CC[C@@H](C(=O)N3CC4(C3)OCc3ccncc34)N2C1=O)c1cc2cc(C(F)P(=O)(O)O)ccc2s1 (stereo partly drawn) :: 4.52 to 5.52
3) O=C(N[C@H]1CCCC[C@H]2CC[C@@H](C(=O)N3C[C@@H](c4cccnc4)CC34CC4)N2C1=O)c1cc2cc([C@H](F)P(=O)(O)O)ccc2s1 (single isomer, unassigned) :: ≥ 6.52
4) O=C(N[C@H]1CCC[C@H]2CC[C@@H](C(=O)N3CC(c4cccnc4)CC34CC4)N2C1=O)c1cc2cc(C(F)P(=O)(O)O)ccc2s1 (stereo partly drawn) :: ≥ 6.52
5) N#Cc1cncc(C2CN(C(=O)[C@@H]3CC[C@@H]4CCC[C@H](NC(=O)c5cc6cc(CP(=O)(O)O)ccc6s5)C(=O)N43)C2)c1 :: 4.52 to 5.52

Could you now look at the following molecule, please?
-- ask API: value(readout=pIC50, system=Recombinant STAT6 protein (STAT6 (W123-T658)) (Homo sapiens, UniProt P42226)) for record `O=C(N[C@H]1CCCC[C@H]2CC[C@@H](C(=O)NCc3ccn4ccnc4c3)N2C1=O)c1cc2cc(C(F)(F)P(=O)(O)O)ccc2s1`
-- reply 5.52 to 6.52
